Values were extracted from paper PMC10910633.

target: native PKCε (Mus musculus, UniProt P16054); assay: cell-based; type: binding; details: read-out: Cellular Ki values for native PKCs
Sequence (P16054 whole entry): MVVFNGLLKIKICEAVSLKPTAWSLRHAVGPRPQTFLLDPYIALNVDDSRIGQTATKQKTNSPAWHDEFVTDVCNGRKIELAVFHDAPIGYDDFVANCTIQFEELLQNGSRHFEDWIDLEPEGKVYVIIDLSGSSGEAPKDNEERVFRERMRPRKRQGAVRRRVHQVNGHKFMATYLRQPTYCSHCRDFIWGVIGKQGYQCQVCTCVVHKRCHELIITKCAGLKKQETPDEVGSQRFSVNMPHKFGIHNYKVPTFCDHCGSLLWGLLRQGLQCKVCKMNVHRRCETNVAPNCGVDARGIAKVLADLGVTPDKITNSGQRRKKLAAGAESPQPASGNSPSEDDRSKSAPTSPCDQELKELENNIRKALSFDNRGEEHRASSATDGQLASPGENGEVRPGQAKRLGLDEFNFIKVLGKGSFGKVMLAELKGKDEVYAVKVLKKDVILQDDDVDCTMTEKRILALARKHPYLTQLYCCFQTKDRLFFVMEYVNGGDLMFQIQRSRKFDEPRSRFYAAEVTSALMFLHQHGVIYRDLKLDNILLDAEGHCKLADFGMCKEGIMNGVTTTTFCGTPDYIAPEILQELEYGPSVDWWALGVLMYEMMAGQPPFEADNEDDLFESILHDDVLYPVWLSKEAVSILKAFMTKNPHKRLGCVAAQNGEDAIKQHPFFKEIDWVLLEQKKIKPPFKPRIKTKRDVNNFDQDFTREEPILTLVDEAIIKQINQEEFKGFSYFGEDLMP

MOLECULE: CCCC(=O)O[C@@H]1[C@@H](C)[C@@]2(O)[C@@H](C=C(CO)C[C@]3(O)C(=O)C(C)=C[C@@H]23)[C@@H]2C(C)(C)[C@]12OC(=O)CCC [PDBu, phorbol 12, 13-dibutyrate]
TEST TARGET: native PKCε (Mus musculus, UniProt P16054)
UNIT LABEL: nM
Ki: 43

---

biological target: native PKCδ (Mus musculus, UniProt P28867); test: cell-based; type: binding; details: read-out: Cellular Ki values for native PKCs
Sequence (P28867 whole entry): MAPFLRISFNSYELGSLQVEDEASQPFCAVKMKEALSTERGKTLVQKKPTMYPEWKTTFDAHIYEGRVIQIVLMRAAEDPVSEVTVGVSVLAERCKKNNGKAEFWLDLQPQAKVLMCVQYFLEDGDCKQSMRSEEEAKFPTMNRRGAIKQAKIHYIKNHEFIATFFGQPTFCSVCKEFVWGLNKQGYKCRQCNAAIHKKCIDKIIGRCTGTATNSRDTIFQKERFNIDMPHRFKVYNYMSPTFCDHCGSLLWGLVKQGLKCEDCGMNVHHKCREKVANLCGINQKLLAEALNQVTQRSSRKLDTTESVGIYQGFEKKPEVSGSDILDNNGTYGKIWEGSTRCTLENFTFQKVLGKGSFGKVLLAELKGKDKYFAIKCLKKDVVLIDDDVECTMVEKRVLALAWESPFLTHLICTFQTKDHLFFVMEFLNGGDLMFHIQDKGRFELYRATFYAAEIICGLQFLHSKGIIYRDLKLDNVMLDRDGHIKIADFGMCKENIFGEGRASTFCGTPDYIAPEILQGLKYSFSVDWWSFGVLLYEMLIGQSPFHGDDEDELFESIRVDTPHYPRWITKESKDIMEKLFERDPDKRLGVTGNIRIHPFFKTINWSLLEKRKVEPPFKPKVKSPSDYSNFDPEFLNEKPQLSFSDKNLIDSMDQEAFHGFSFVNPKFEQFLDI

MOLECULE: CCCC(=O)O[C@@H]1[C@@H](C)[C@@]2(O)[C@@H](C=C(CO)C[C@]3(O)C(=O)C(C)=C[C@@H]23)[C@@H]2C(C)(C)[C@]12OC(=O)CCC [PDBu, phorbol 12, 13-dibutyrate]
Ki: 45 nM

---

target: native PKCη (Mus musculus); assay: cell-based; assay type: binding; details: read-out: Cellular Ki values for native PKCs
Sequence (P23298 whole entry): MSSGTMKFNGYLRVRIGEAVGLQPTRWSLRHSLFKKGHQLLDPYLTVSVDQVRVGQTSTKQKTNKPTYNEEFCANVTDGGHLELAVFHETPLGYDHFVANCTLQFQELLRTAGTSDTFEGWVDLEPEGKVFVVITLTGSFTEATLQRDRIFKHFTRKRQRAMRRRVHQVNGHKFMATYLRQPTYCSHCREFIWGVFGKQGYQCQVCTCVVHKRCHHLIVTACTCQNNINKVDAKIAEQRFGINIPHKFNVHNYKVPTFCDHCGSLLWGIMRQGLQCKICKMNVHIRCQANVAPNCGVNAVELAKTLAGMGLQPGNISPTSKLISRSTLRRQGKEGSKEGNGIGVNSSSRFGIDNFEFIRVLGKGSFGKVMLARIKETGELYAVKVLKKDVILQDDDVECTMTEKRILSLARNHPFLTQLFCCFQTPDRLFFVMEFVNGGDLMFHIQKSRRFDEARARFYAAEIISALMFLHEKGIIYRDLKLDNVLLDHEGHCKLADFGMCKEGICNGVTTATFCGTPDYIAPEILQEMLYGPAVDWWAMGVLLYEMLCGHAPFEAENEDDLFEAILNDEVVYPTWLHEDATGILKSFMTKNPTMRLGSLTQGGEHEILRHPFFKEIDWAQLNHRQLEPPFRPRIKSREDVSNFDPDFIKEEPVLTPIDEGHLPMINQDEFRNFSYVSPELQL

MOLECULE: CCCC(=O)O[C@@H]1[C@@H](C)[C@@]2(O)[C@@H](C=C(CO)C[C@]3(O)C(=O)C(C)=C[C@@H]23)[C@@H]2C(C)(C)[C@]12OC(=O)CCC [PDBu, phorbol 12, 13-dibutyrate]
Ki [nM]: 27
